- Test system: M. smegmatis biofilm
- test details: M. smegmatis biofilm formation inhibition
- Format: cell-based, Mycobacterium smegmatis
assay metric: inhibition of M. smegmatis biofilm formation

{"molecule": "[N-]=[N+]=N[C@@H]1[C@H](O)[C@@H](O)[C@@H](O[C@H]2O[C@H](CO)[C@@H](O)[C@H](O)[C@H]2O)O[C@@H]1CO [4-epi-TreAz]", "assay value": "no inhibitory effects"}
{"molecule": "N[C@@H]1[C@H](O)[C@@H](O)[C@@H](O[C@H]2O[C@H](CO)[C@@H](O)[C@H](O)[C@H]2O)O[C@@H]1CO [4-epi-TreNH2]", "assay value": "no inhibitory effects"}
{"molecule": "N[C@@H]1[C@@H](O[C@H]2O[C@H](CO)[C@@H](O)[C@H](O)[C@H]2O)O[C@H](CO)[C@@H](O)[C@@H]1O [2-epi-TreNH2]", "assay value": "no inhibitory effects"}

###

- System: M. tuberculosis
- test details: M. tuberculosis planktonic growth inhibition
- Format: cell-based, Mycobacterium tuberculosis
assay metric: inhibition of M. tuberculosis planktonic growth

{"compound": "N[C@@H]1[C@@H](O[C@H]2O[C@H](CO)[C@@H](O)[C@H](O)[C@H]2O)O[C@H](CO)[C@@H](O)[C@@H]1O [2-epi-TreNH2]", "system tested": "M. tuberculosis", "assay value": "no inhibitory effects"}
{"compound": "N[C@@H]1[C@H](O)[C@@H](O)[C@@H](O[C@H]2O[C@H](CO)[C@@H](O)[C@H](O)[C@H]2O)O[C@@H]1CO [4-epi-TreNH2]", "system tested": "M. tuberculosis", "assay value": "no inhibitory effects"}
{"compound": "[N-]=[N+]=N[C@@H]1[C@H](O)[C@@H](O)[C@@H](O[C@H]2O[C@H](CO)[C@@H](O)[C@H](O)[C@H]2O)O[C@@H]1CO [4-epi-TreAz]", "system tested": "M. tuberculosis", "assay value": "no inhibitory effects"}

###

- System: M. tuberculosis biofilm
- test details: M. tuberculosis biofilm formation inhibition (crystal violet staining)
- Format: cell-based, Mycobacterium tuberculosis
assay metric: inhibition of M. tuberculosis biofilm formation

{"molecule": "N[C@@H]1[C@H](O)[C@@H](O)[C@@H](O[C@H]2O[C@H](CO)[C@@H](O)[C@H](O)[C@H]2O)O[C@@H]1CO [4-epi-TreNH2]", "assay value": "do not"}
{"molecule": "N[C@@H]1[C@@H](O[C@H]2O[C@H](CO)[C@@H](O)[C@H](O)[C@H]2O)O[C@H](CO)[C@@H](O)[C@@H]1O [2-epi-TreNH2]", "assay value": "do not"}
{"molecule": "[N-]=[N+]=N[C@@H]1[C@H](O)[C@@H](O)[C@@H](O[C@H]2O[C@H](CO)[C@@H](O)[C@H](O)[C@H]2O)O[C@@H]1CO [4-epi-TreAz]", "assay value": "do not"}
{"molecule": "N[C@H]1[C@H](O)[C@@H](O)[C@@H](O[C@H]2O[C@H](CO)[C@@H](O)[C@H](O)[C@H]2O)O[C@@H]1CO", "assay value": "inhibit"}

Form: molecule = "N[C@H]1[C@@H](O[C@H]2O[C@H](CO)[C@@H](O)[C@H](O)[C@H]2O)O[C@H](CO)[C@@H](O)[C@@H]1O" ; inhibition of M. tuberculosis biofilm formation = inhibit
